test target: full-length proMMP9(1-707) (SEQ ID NO:1), activation by catalytic MMP3 (Homo sapiens, UniProt P14780, R574P)
Construct: E. coli (MMP3)
Sequence (P14780 20-707 R574P): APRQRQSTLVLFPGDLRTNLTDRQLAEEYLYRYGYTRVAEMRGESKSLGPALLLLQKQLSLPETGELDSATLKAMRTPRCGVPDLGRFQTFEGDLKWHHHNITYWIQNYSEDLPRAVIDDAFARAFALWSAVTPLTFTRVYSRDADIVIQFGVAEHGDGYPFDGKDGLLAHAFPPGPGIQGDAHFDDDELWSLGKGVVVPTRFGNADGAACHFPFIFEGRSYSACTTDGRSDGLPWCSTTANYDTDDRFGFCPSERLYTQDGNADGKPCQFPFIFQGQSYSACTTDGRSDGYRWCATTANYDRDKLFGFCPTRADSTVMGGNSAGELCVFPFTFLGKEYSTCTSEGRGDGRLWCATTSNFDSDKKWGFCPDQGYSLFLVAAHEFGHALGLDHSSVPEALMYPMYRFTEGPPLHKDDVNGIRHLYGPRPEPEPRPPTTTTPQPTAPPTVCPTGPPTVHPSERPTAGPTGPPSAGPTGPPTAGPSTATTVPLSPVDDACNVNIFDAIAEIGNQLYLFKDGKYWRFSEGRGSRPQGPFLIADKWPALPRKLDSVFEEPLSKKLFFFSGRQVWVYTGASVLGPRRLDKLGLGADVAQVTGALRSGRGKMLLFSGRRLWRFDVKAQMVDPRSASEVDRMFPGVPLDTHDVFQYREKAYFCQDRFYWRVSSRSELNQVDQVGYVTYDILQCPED
experiment: proMMP9/MMP3 P126 Activation Assay
The compounds listed here are annotated with their IC50.

Example compounds with recorded IC50:
| smiles notation | IC50 |
| --- | --- |
| CC(C)Oc1ccc(S(N)(=O)=O)cc1Nc1nc(-c2ccc(N3CCN(CCC(F)(F)F)CC3)nc2)cs1 | > 20 µM |
| Cc1cc(C)c(-c2csc(Nc3cc(C(N)=O)ccc3OC(C)C)n2)c(C)n1 | ~4 µM |

Kindly review the next compound as well.
Please report the recorded IC50 for Cc1cc2cccc(Nc3nc(-c4cccnc4)cs3)c2o1 .
~5 µM

###

test target: full-length proMMP9(1-707) (SEQ ID NO:1), activation by catalytic MMP3 (Homo sapiens, UniProt P14780, R574P)
Construct: E. coli (MMP3)
experiment: proMMP9/MMP3 P126 Activation Assay
Protocol: proMMP9/MMP3 P126 Activation Assay The reaction volume was 50 μL. […] Reactivity of residual MMP3 towards P-126 substrate was minimal under these conditions.
IC50 for assorted compounds

| smiles notation | IC50 |
| --- | --- |
| COC1CCN(c2ccc(-c3csc(Nc4cc(S(N)(=O)=O)ccc4OC(C)C)n3)cn2)CC1 | ~0.3 µM |
| NS(=O)(=O)c1ccc(OC(F)(F)F)c(Nc2nc(-c3cccnc3)cs2)c1 | > 20 µM |

Name the reported IC50 value associated with the compound CC1CCN(c2ccc(-c3csc(Nc4cc(S(N)(=O)=O)ccc4OC(C)C)n3)cn2)CC1
> 20 µM

###

test target: proMMP13(1-268) (SEQ ID NO:7) (Homo sapiens)
Construct: 6xHis (C)
experiment: ThermoFluor binding assay with proMMP13(1-268)
Measured Kd accompanies every entry in the list below.

Look up Kd for this molecule: COc1ccc(CC(N)=O)cc1Nc1nc(-c2cccnc2)cs1
> 95 µM

GET /values?readout=Kd&item= COc1ccc(S(N)(=O)=O)cc1Nc1nc(-c2cccnc2)cs1
> 95 µM

Any idea what its Kd is? The molecule is NS(=O)(=O)c1ccc(OC(F)(F)F)c(Nc2nc(-c3cccnc3)cs2)c1
> 95 µM

Any idea what its Kd is? The molecule is Cc1cc2cccc(Nc3nc(-c4cccnc4)cs3)c2o1
> 95 µM

###

test target: full-length proMMP9(1-707) (SEQ ID NO:1), activation by catalytic MMP3 (Homo sapiens, UniProt P14780, R574P)
Construct: E. coli (MMP3)
experiment: proMMP9/MMP3 P126 Activation Assay
Procedure: proMMP9/MMP3 P126 Activation Assay The reaction volume was 50 μL. […] Reactivity of residual MMP3 towards P-126 substrate was minimal under these conditions.
test readout: IC50 (nM)

| compound | measurement unit | IC50 |
| --- | --- | --- |
| CC(C)Oc1ccc(C(N)=O)cc1Nc1nc(-c2ccncc2)cs1 | nM | 280 |

P = CC(C)Oc1ccc(S(N)(=O)=O)cc1Nc1nc(-c2ccc(N3CCNC(C(F)(F)F)C3)nc2)cs1 (centres unmarked)
Q = CC(C)Oc1ccc(S(N)(=O)=O)cc1Nc1nc(-c2ccc(N3CCN(CC4CC4)CC3)nc2)cs1
R = CC(C)Oc1ccc(S(C)(=O)=O)cc1Nc1nc(-c2cccnc2)cs1
Arrange items by their IC50 values in increasing order. In plain terms: list the labels in the order you were asked to.
Q, P, R
